test: Half life in albino rat retina; format: ADME, tissue-based
measurement.name: half-life (h)
Express the result in h but write the number alone.

Which value of half-life has been reported for CC(C)(C)/[N+]([O-])=C/c1ccccc1 in the records?
2
